molecular target: CYP3A4 (Homo sapiens, UniProt P08684)
Sequence (P08684 whole entry): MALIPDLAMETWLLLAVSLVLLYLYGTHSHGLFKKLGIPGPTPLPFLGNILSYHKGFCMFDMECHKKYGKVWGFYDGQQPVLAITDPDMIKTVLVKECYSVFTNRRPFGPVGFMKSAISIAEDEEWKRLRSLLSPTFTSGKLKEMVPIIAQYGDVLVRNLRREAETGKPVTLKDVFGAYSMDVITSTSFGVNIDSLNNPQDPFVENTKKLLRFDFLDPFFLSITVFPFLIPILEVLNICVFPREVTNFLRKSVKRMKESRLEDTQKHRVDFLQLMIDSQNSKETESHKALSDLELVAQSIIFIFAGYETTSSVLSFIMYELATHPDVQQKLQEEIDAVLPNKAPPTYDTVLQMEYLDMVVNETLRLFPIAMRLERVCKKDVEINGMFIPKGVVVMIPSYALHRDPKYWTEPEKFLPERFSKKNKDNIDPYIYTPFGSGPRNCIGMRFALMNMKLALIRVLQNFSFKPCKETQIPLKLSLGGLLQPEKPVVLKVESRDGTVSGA
Structures can show the parent of a compound that is named as a salt.
readout_name: Ki (µM)
Give the value, in units of µM, as a plain number.

### Prompt Query (compound): CC(C)C[C@@H](NC(=O)C(C)(C)N)C(=O)NC1Cc2cccc(N3CCCC3=O)c2N(Cc2ccsc2)C1=O (stereo partly shown) [Example 34a, hydrochloride] ; field requested: Ki
### Response 86

* * *

target: human GHS-R1a (Homo sapiens, UniProt Q92847); construct: expressed in transfected cells; test: Agonistic activity by use of a cell line stably expressing human GHS-R1a (intracellular calcium increase); type: cell-based; details: hGHS-R1a/CHO cells, percent increase in intracellular calcium vs 100 nM ghrelin; read-out: GHS-R agonistic activity (EC50: nM)
Sequence (Q92847 whole entry): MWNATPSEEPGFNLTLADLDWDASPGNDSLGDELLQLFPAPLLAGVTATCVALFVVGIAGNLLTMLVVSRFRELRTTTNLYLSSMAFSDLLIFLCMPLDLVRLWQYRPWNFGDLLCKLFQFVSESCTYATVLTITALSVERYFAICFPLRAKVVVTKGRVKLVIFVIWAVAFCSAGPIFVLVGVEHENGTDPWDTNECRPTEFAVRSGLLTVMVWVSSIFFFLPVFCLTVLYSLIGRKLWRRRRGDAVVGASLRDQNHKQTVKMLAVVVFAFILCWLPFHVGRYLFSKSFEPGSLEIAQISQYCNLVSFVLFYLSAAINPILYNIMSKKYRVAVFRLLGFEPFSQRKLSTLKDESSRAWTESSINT
Structures can show the parent of a compound that is named as a salt.
Below: a set of entries, each annotated with reported log10 EC50.
Form field - Quantity: EC50; Unit: nM; Scale: log10

Guide cases for log10 EC50, answers given:
molecule: CN(C)c1cccc2c1N(Cc1ccccn1)C(=O)C(NC(=O)[C@H](NC(=O)C(C)(C)N)c1ccccc1)C2 (some centres unmarked) [Example 41, hydrochloride]
log10 EC50: 1.05
--
molecule: CC(C)C[C@@H](NC(=O)C(C)(C)N)C(=O)NC1Cc2cccc(N3CCCC3=O)c2N(Cc2ccccc2)C1=O (some centres unmarked) [Example 35, hydrochloride]
log10 EC50: -0.05
--
molecule: CC(C)C[C@@H](NC(=O)C(C)(C)N)C(=O)NC1Cc2cccc(N3CCCC3=O)c2N(Cc2ccsc2)C1=O (some centres unmarked) [Example 34a, hydrochloride]
log10 EC50: -0.42
--
molecule: CCN(CC)c1cccc2c1N(Cc1ccccn1)C(=O)C(NC(=O)[C@@H](CC(C)C)NC(=O)CC(C)(C)N)C2 (some centres unmarked) [Example 47, hydrochloride]
log10 EC50: 1.26
--
molecule: CC(C)(N)C(=O)N[C@H](Cc1cn(CCF)c2ccccc12)C(=O)NC1Cc2cccc(N3CCCC3=O)c2N(Cc2ccsc2)C1=O (some centres unmarked) [Example 34d, hydrochloride]
log10 EC50: -0.66
--
molecule: CC[C@](C)(N)C(=O)N[C@H](CC(C)C)C(=O)NC1Cc2cccc(N3CCCC3=O)c2N(Cc2ccsc2)C1=O (some centres unmarked) [Example 25j]
log10 EC50: 0.62
--
molecule: CC(C)C[C@@H](NC(=O)C(C)(C)N)C(=O)NC1Cc2cccc(N3C(=O)CCC3O)c2N(Cc2ccsc2)C1=O (some centres unmarked) [Example 66]
log10 EC50: -0.35
--
molecule: CC(C)(N)C(=O)N[C@H](Cc1c[nH]c2ccccc12)C(=O)NC1Cc2cccc(N3CCCC3=O)c2N(Cc2ccccc2)C1=O (some centres unmarked) [Example 38, hydrochloride]
log10 EC50: -1.00

### Prompt Recorded log10 EC50 of CCn1cc(C[C@@H](NC(=O)C(C)(C)N)C(=O)NC2Cc3cccc(N4CCCC4=O)c3N(Cc3ccsc3)C2=O)c2ccccc21 (some centres unmarked) [Example 34c, hydrochloride] , please.
### Response -1.70

### Prompt Please give the measured log10 EC50 for this molecule: CN(C)N(C)C(=O)[C@@]1(Cc2ccccc2)CCCN(C(=O)[C@@H](Cc2c[nH]c3ccccc23)NC(=O)C(C)(C)N)C1 [Anamorelin hydrochloride, anamorelin hydrochloride, reference compound]
### Response -0.82
